In this section, each of the compounds is paired with its reported composite z-score.
- Tested on: Noggin (protein binding on small-molecule microarray)
- TEST PROTOCOL: Noggin binders on small-molecule microarray, primary screen, biochemical, 635/667 nm fluorescence (AID 1095);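 also: score merges 667 nm feature fluorescence with signal to noise over triplicate slides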
- SETUP CONDITIONS: 635 nm fluorescence, higher = more signal
QUANTITY MEASURED: composite z-score

[[record]]
compound = "CC(C)CON=C1[C@H]2CCn3c(=O)n(C)c(=O)n3[C@H]2[C@H](O)[C@@H]2O[C@H]12"
test_system = "Noggin (protein binding on small-molecule microarray)"
value_reported = 0.757

[[record]]
compound = "CCOC(=O)[C@H](CC(C)C)NC(=O)CCC1CC(OC(=O)NCc2ccc3c(c2)OCO3)CC2(CCCC(COC(=O)NCCOC)O2)O1 (some centres undefined)"
test_system = "Noggin (protein binding on small-molecule microarray)"
value_reported = 0.474

[[record]]
compound = "CC(CCN1CCc2nc(-c3ccccc3)c(-c3ccccc3)cc2C1)=NOC(C)CN1CCCc2nc(C)c(C)cc21 (centres undefined)"
test_system = "Noggin (protein binding on small-molecule microarray)"
value_reported = 0.582

[[record]]
compound = "CC(=O)OC[C@H]1O[C@H](CC=NOC[C@@H](O)COCc2ccco2)C=C[C@@H]1OC(C)=O"
test_system = "Noggin (protein binding on small-molecule microarray)"
value_reported = 1.77


* * *

In this section, each of the compounds is paired with its reported z-score.
- TEST PROTOCOL: MM1S cell viability effects, profiling panel, calcein-AM fluorescence, 48 h, basal (AID 1165);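 also: viability of MM1S multiple myeloma cells under basal unstimulated conditions; test concentration not given here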
- SETUP CONDITIONS: higher = more signal
QUANTITY MEASURED: z-score

[[record]]
compound = "COc1cccc([C@H]2Oc3ccc(OC)cc3C(=NOCC[C@@H]3C=C[C@H](OC(C)=O)[C@@H](COC(C)=O)O3)[C@@H]2O)c1"
quantity_measured = "z-score"
value_reported = 0.445

[[record]]
compound = "Cc1cc2c(nc1C)CCCCN2CC(O)CN1CCCc2nc(-c3ccc(Br)cc3)ccc21 (stereo not given)"
quantity_measured = "z-score"
value_reported = 0.322

[[record]]
compound = "CC(C)(C)N1C(=O)[C@H]2[C@H]3[C@H](O)[C@H](O)CC(=NOC[C@@H](O)COCc4ccco4)[C@@H]3CC[C@H]2C1=O"
quantity_measured = "z-score"
value_reported = 0.268

[[record]]
compound = "CCOC(=O)[C@H](Cc1ccccc1)NC(=O)CCC1CC(OC(=O)NCCc2ccc(F)cc2)CC2(CCCC(COC(=O)NCCOc3ccccc3)O2)O1 (stereo not given in full)"
quantity_measured = "z-score"
value_reported = -0.565

[[record]]
compound = "CC(C)[C@@H](OCc1ccccc1)[C@H](C)CON=C1[C@H]2CCn3c(=O)n(-c4ccccc4)c(=O)n3[C@H]2[C@H](O)[C@@H]2O[C@H]12"
quantity_measured = "z-score"
value_reported = -2.72

[[record]]
compound = "C=CC[C@@H]1C=CC(ON=C(C)C)[C@@H](CO)O1 (stereo not given in full)"
quantity_measured = "z-score"
value_reported = 0.255

[[record]]
compound = "CC(=O)OC[C@H]1O[C@@H](ON=C(C)CCN2CCCCc3nc(C)c(C)cc32)[C@H](OC(C)=O)[C@@H](OC(C)=O)[C@@H]1OC(C)=O"
quantity_measured = "z-score"
value_reported = 0.224

[[record]]
compound = "CC(C)(C)N1C(=O)[C@H]2[C@H]3[C@H](O)[C@H](O)CC(=NOC[C@@H](O)COCc4ccco4)[C@H]3CC[C@H]2C1=O"
quantity_measured = "z-score"
value_reported = 0.406

[[record]]
compound = "CCN1C(C)=C(C(=O)OC)[C@@H](c2ccccc2)N2C(=O)[C@](O)(C(=O)OC)CC(C(C)=O)=C12"
quantity_measured = "z-score"
value_reported = 0.339

[[record]]
compound = "COC(OC)[C@@H](C)[C@H](OC)[C@@H](C)[C@H](OC)c1ccccc1"
quantity_measured = "z-score"
value_reported = -0.569

[[record]]
compound = "COC(=O)CC=C[C@@H](C)[C@@H](C=NOC(C)CN1CCCCc2nc(C)c(C)cc21)NS(=O)(=O)c1ccc(C)cc1 (stereo not given in full)"
quantity_measured = "z-score"
value_reported = 0.0238

[[record]]
compound = "CCOC(=O)NN=C1C[C@@H](O)[C@@H](O)[C@@H]2[C@@H]3C(=O)N(CC)C(=O)[C@@H]3CC[C@H]12"
quantity_measured = "z-score"
value_reported = 0.464

[[record]]
compound = "COc1ccc(COC(=O)NN=C2C[C@@H](O)[C@@H](O)[C@@H]3[C@@H]4C(=O)N(c5cccc(Oc6ccccc6)c5)C(=O)[C@@H]4CC[C@H]23)cc1"
quantity_measured = "z-score"
value_reported = 0.0646

[[record]]
compound = "COc1ccc(COC(=O)NN=C2C[C@@H](O)[C@@H](O)[C@@H]3[C@@H]4C(=O)N(C[C@@H]5CCCO5)C(=O)[C@@H]4CC[C@@H]23)cc1"
quantity_measured = "z-score"
value_reported = -0.657

[[record]]
compound = "CO[C@H]1COC(=O)CC=C[C@H](C)[C@H](OC)COC(=O)[C@@H](C)NC(=O)CC=C[C@@H]1C"
quantity_measured = "z-score"
value_reported = 0.0674

